Source listed as paper PMC8325119.

- Test system: K562 cell line
- ASSAY SUMMARY: SRB cytotoxicity assay, K562 leukaemia cell line
- EXPERIMENTAL SETUP: Homo sapiens, K562, 72 h, read-out: Cytotoxicity IC50 value, K562 cell line, SRB, 72 h, 0.1-200 μg/mL range, mean ± SD; NI = lack of cytotoxicity in range

{"columns": ["COMPOUND", "IC50"],
 "data": [
  ["COc1ccc(Nc2c(F)cc3c(=O)c(C(=O)O)cn(C4CC4)c3c2[N+](=O)[O-])c(OC)c1 [3g]", "> 200 µg/mL"],
  ["CCc1ccc(Nc2c(F)cc3c(=O)c(C(=O)O)cn(C4CC4)c3c2[N+](=O)[O-])cc1 [3d]", "> 200 µg/mL"],
  ["CCn1cc(C(=O)O)c(=O)c2cc(F)c(Nc3ccc(OC)cc3OC)c([N+](=O)[O-])c21 [11c]", "> 200 µg/mL"],
  ["CCCCc1ccc(-n2nnc3c4c(cc(F)c32)c(=O)c(C(=O)O)cn4C2CC2)cc1 [5e]", "49 µM"],
  ["O=C(O)c1cn(C2CC2)c2c(cc(F)c3c2nnn3C2CCCCC2)c1=O [9a]", "> 200 µg/mL"]
]}
